Tested on: HSV-1(F) or HSV-2(G)
procedure-summary: In vitro HSV inactivation, plaque assay on Vero cells
Format: cell-based, herpes simplex virus
measurement-parameters: room temperature, in the dark, up to 60 minutes
readout-label: inactivating HSVs

O=S(=O)(O)c1ccc(C2=C3C=CC(=N3)[C-](c3ccc(S(=O)(=O)O)cc3)C3=NC(=C(c4ccc(S(=O)(=O)O)cc4)c4[cH-]cc(n4)C(c4ccc(S(=O)(=O)O)cc4)=C4C=CC2=N4)C=C3)cc1.[Cu+2] (stereo not drawn)	active
O=S(=O)(O)c1ccc(-c2c3nc(c(-c4ccc(S(=O)(=O)O)cc4)c4ccc([nH]4)c(-c4ccc(S(=O)(=O)O)cc4)c4nc(c(-c5ccccc5)c5ccc2[nH]5)C=C4)C=C3)cc1.[Cu]	active
O=C(O)c1ccc(-c2c3nc(c(-c4ccc(C(=O)O)cc4)c4ccc([nH]4)c(-c4ccc(C(=O)O)cc4)c4nc(c(-c5ccc(C(=O)O)cc5)c5ccc2[nH]5)C=C4)C=C3)cc1	active
